Sourced from patent US4820695A

Could you please report measured pKa for the items listed next?
# Experiment Summary: Titratable groups in 66% aqueous DMF (Tables XIV-XVI)
# Assay type: physicochemical
# Condition Description: 66% aqueous DMF, read-out: Titratable groups
A bare number is all that is needed in reply.

Enquiry: Using the record for CCC1OC(=O)CC(O)C(C)C(OC2OC(C)C(OC3CC(C)(O)C(O)C(C)O3)C(N(C)C)C2O)C(CCN2CCCCCC2)CC(C)C(=O)C=CC(C)=CC1COC1OC(C)C(O)C(O)C1OC (centres unmarked) [Compound M3] , state its measured pKa.
Return: 9.4

Enquiry: Using the record for CCC1OC(=O)CC(O)C(C)C(OC2OC(C)C(OC3CC(C)(O)C(O)C(C)O3)C(N(C)C)C2O)C(CCN2CCCCCCC2)CC(C)C(=O)C=CC(C)=CC1COC1OC(C)C(O)C(O)C1OC (centres unmarked) [Compound M4] , state its measured pKa.
Return: 9.25

* * *

# System: Streptococcus pyogenes C203
# Experiment Summary: ED50 in mice experimentally infected with S. pyogenes C203 (Table XI)
# Type: in vivo
# Condition Description: Streptococcus pyogenes, C203, Oral, doses given 1 and 4 hours postinfection, read-out: ED50
Assay Readout: ED50

Enquiry: Using the record for CCC1OC(=O)CC(O)C(C)C(OC2OC(C)C(O)C(N(C)C)C2O)C(CCN2CCC3(CC2)OCCO3)CC(C)C(=O)C=CC(C)=CC1COC1OC(C)C(O)C(OC)C1OC (centres unmarked) , state its measured ED50.
Return: 77 mg/kg

Enquiry: Using the record for CCC1OC(=O)CC(O)C(C)C(OC2OC(C)C(O)C(N(C)C)C2O)C(CCN2CCCC2)CC(C)C(=O)C=CC(C)=CC1COC1OC(C)C(O)C(OC)C1OC (centres unmarked) [Compound D1, 20-DH-DO-20-(pyrrolidin-1-yl)desmycosin] , state its measured ED50.
Return: > 50 mg/kg

Enquiry: Using the record for CCC1OC(=O)CC(O)C(C)C(OC2OC(C)C(OC3CC(C)(O)C(O)C(C)O3)C(N(C)C)C2O)C(CCN2CCCCCC2)CC(C)C(=O)C=CC(C)=CC1COC1OC(C)C(O)C(O)C1OC (centres unmarked) , state its measured ED50.
Return: > 100 mg/kg

Enquiry: Using the record for CCC1OC(=O)CC(O)C(C)C(OC2OC(C)C(O)C(N(C)C)C2O)C(CCN2CCc3ccccc3C2)CC(C)C(=O)C=CC(C)=CC1COC1OC(C)C(O)C(OC)C1OC (centres unmarked) , state its measured ED50.
Return: < 6.3 mg/kg

Enquiry: Using the record for CCC1OC(=O)CC(O)C(C)C(OC2OC(C)C(O)C(N(C)C)C2O)C(CCN2CCCCC2)CC(C)C(=O)C=CC(C)=CC1COC1OC(C)C(O)C(OC)C1OC (centres unmarked) [Compound D2, 20-DH-DO-20-(piperidin-1-yl)desmycosin] , state its measured ED50.
Return: 50 mg/kg

* * *

# Tested on: Streptococcus pyogenes C203
# Experiment Summary: ED50 in mice experimentally infected with S. pyogenes C203 (Table XI)
# Format: in vivo
# Condition Description: Streptococcus pyogenes, C203, Oral, doses given 1 and 4 hours postinfection, read-out: ED50
Could you please report measured ED50 for the items listed next?
Write it as a number; the unit mg/kg goes unstated.

Enquiry: Using the record for CCC1OC(=O)CC(O)C(C)C(OC2OC(C)C(OC3CC(C)(O)C(O)C(C)O3)C(N(C)C)C2O)C(CCN2CCCCCCC2)CC(C)C(=O)C=CC(C)=CC1COC1OC(C)C(O)C(OC)C1OC (centres unmarked) , state its measured ED50.
Return: 44

Enquiry: Using the record for CCC1OC(=O)CC(O)C(C)C(OC2OC(C)C(O)C(N(C)C)C2O)C(CCN2CC3CCC(CC3)C2)CC(C)C(=O)C=CC(C)=CC1COC1OC(C)C(O)C(OC)C1OC (centres unmarked) , state its measured ED50.
Return: 50

Enquiry: Using the record for CCC1OC(=O)CC(O)C(C)C(OC2OC(C)C(O)C(N(C)C)C2O)C(CCN2CCCCCCC2)CC(C)C(=O)C=CC(C)=CC1COC1OC(C)C(O)C(OC)C1OC (centres unmarked) , state its measured ED50.
Return: 14

Enquiry: Using the record for CCC1OC(=O)CC(O)C(C)C(OC2OC(C)C(O)C(N(C)C)C2O)C(CCN2CCC(Cc3ccccc3)CC2)CC(C)C(=O)C=CC(C)=CC1COC1OC(C)C(O)C(OC)C1OC (centres unmarked) , state its measured ED50.
Return: 16.5

Enquiry: Using the record for CCC1OC(=O)CC(O)C(C)C(OC2OC(C)C(O)C(N(C)C)C2O)C(CCN2CCCCCCC2)CC(C)C(=O)C=CC(C)=CC1COC1OC(C)C(O)C(O)C1OC (centres unmarked) , state its measured ED50.
Return: 100

Enquiry: Using the record for CCC1OC(=O)CC(O)C(C)C(OC2OC(C)C(O)C(N(C)C)C2O)C(CCN2C[C@H](C)C[C@H](C)C2)CC(C)C(=O)C=CC(C)=CC1COC1OC(C)C(O)C(OC)C1OC (some centres unmarked) , state its measured ED50.
Return: 7.98

Enquiry: Using the record for CCC1OC(=O)CC(O)C(C)C(OC2OC(C)C(O)C(N(C)C)C2O)C(CCN2CCCc3ccccc32)CC(C)C(=O)C=CC(C)=CC1COC1OC(C)C(O)C(OC)C1OC (centres unmarked) , state its measured ED50.
Return: 19

Enquiry: Using the record for CCC1OC(=O)CC(O)C(C)C(OC2OC(C)C(O)C(N(C)C)C2O)C(CCN2CCC3(CCCCC3)CC2)CC(C)C(=O)C=CC(C)=CC1COC1OC(C)C(O)C(OC)C1OC (centres unmarked) , state its measured ED50.
Return: 8

Enquiry: Using the record for CCC1OC(=O)CC(O)C(C)C(OC2OC(C)C(O)C(N(C)C)C2O)C(CCN2CC3(C)CC2CC(C)(C)C3)CC(C)C(=O)C=CC(C)=CC1COC1OC(C)C(O)C(OC)C1OC (centres unmarked) , state its measured ED50.
Return: 10

Enquiry: Using the record for CCC1OC(=O)CC(O)C(C)C(OC2OC(C)C(O)C(N(C)C)C2O)C(CCN2CCCC3CCCCC32)CC(C)C(=O)C=CC(C)=CC1COC1OC(C)C(O)C(OC)C1OC (centres unmarked) , state its measured ED50.
Return: 34

Enquiry: Using the record for CCC1OC(=O)CC(O)C(C)C(OC2OC(C)C(O)C(N(C)C)C2O)C(CCN2CCC(c3ccccc3)CC2)CC(C)C(=O)C=CC(C)=CC1COC1OC(C)C(O)C(OC)C1OC (centres unmarked) , state its measured ED50.
Return: 19

Enquiry: Using the record for CCC1OC(=O)CC(O)C(C)C(OC2OC(C)C(O)C(N(C)C)C2O)C(CCN2CCCC23CCCCC3)CC(C)C(=O)C=CC(C)=CC1COC1OC(C)C(O)C(OC)C1OC (centres unmarked) , state its measured ED50.
Return: 46

Enquiry: Using the record for CCC1OC(=O)CC(O)C(C)C(OC2OC(C)C(O)C(N(C)C)C2O)C(CCN2CC=CCC2)CC(C)C(=O)C=CC(C)=CC1COC1OC(C)C(O)C(OC)C1OC (centres unmarked) , state its measured ED50.
Return: 40

Enquiry: Using the record for CCC1OC(=O)CC(O)C(C)C(OC2OC(C)C(O)C(N(C)C)C2O)C(CCN2CCCCCC2)CC(C)C(=O)C=CC(C)=CC1COC1OC(C)C(O)C(OC)C1OC (centres unmarked) , state its measured ED50.
Return: 50

Enquiry: Using the record for CCC1OC(=O)CC(O)C(C)C(OC2OC(C)C(OC3CC(C)(O)C(O)C(C)O3)C(N(C)C)C2O)C(CCN2CC3CCC(CC3)C2)CC(C)C(=O)C=CC(C)=CC1COC1OC(C)C(O)C(OC)C1OC (centres unmarked) , state its measured ED50.
Return: 30

Enquiry: Using the record for CCC1OC(=O)CC(O)C(C)C(OC2OC(C)C(O)C(N(C)C)C2O)C(CCN2CCCCCCCCCCCC2)CC(C)C(=O)C=CC(C)=CC1COC1OC(C)C(O)C(OC)C1OC (centres unmarked) , state its measured ED50.
Return: 68

Enquiry: Using the record for CCC1OC(=O)CC(O)C(C)C(OC2OC(C)CC(N(C)C)C2O)C(CCN2CCCCCC2)CC(C)C(=O)C=CC(C)=CC1COC1OC(C)C(O)C(OC)C1OC (centres unmarked) , state its measured ED50.
Return: 34
